Target under test: T1, Recombinant Human IL-13 (R & D 213-IL-005) (human, UniProt P35225 35-146)
T1 construct: also called IL-13 antigen (R&D Systems)
T1 sequence (P35225 35-146 limits assumed): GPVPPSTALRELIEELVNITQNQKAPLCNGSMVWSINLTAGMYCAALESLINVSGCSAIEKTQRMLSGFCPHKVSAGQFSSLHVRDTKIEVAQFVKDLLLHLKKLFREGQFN
Measurement description: SPR (Biacore 2000), mAb captured on goat anti-human surface, IL-13 (R&D) injected, 1:1 model
Kindly state kon for each of the entries shown.
Give bare numbers, in M⁻¹ s⁻¹.

| Binder | kon (M⁻¹ s⁻¹) |
| --- | --- |
| mAb 713 (antibody, V domains shown) VH: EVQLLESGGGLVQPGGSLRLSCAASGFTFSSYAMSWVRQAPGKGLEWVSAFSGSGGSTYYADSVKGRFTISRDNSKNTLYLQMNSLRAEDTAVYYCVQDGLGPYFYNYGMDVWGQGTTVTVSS VL: SYELTQPPSVSVSPGQTASITCSGDKLGDKYTCWFQQKPGQSPVLVIYHDSKRPSGIPERFSGSNSGDTATLTISGTQAMDEADYYCQAWDSSTYVFGTGTKVTVLG | 2.9e+06 |

Proceeding to the next binder to report its kon.
Input: May I ask what kon has been recorded for mAb 602 (antibody, V domains shown) VH: EVQLVESGGGLVKPGGSLRLSCAASGFTFSNAWMSWVRQAPGKGLEWVGRIRSKIDGGTINYAAPVKGRFTISRDDSKNTLYLQMNSLKTEDTAVYYCATDQVGAYYGDYYGMDVWGQGTTVTVSS VL: SYELTQPPSVSVSPGQTARITCSGDALPEKYAYWYQQKSGQAPVLVIYEDTKRPSGIPERFSGSSSGTMATLTISGAQVEDEADYYCYSTDSSGNHGVFGGGTKLTVLG ?
Output: 3e+06
